- Experimental target: human IL-6 (human, UniProt P05231 30-212)
- Sequence (P05231 30-212 limits assumed): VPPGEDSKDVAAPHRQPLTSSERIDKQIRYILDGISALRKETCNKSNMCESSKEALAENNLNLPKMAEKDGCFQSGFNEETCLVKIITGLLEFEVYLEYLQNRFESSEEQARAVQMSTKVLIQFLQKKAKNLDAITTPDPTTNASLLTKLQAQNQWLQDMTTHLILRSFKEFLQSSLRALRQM
- Experimental protocol: SPR (Biacore), supernatant antibody on Protein A chip, IL-6 flowed, 37 C
Record form. Attribute: pKd. Fill in for each entry.
Numbers only, as −log10 of the molar value.

Solved entries (count: 4):
anti-IL-6 antibody, heavy chain S35H, G66D / light chain M32L, M50D, N52S, M88Q (antibody, human IgG1, V domains shown, Human IgG1) VH: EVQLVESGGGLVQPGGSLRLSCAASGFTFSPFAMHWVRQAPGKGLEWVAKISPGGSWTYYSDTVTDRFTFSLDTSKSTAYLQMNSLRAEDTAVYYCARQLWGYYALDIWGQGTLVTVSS VL: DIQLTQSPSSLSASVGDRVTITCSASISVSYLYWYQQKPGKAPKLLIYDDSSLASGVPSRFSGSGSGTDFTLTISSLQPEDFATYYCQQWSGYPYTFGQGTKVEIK
9.78
anti-IL-6 antibody, heavy chain S35Y, G66D / light chain M32L, M50D, N52S, M88Q (antibody, human IgG1, V domains shown, Human IgG1) VH: EVQLVESGGGLVQPGGSLRLSCAASGFTFSPFAMYWVRQAPGKGLEWVAKISPGGSWTYYSDTVTDRFTFSLDTSKSTAYLQMNSLRAEDTAVYYCARQLWGYYALDIWGQGTLVTVSS VL: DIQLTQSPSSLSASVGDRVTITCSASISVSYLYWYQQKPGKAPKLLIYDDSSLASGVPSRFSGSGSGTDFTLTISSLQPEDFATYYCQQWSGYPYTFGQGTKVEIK
8.46
anti-IL-6 antibody, heavy chain I51E, G66D / light chain M32L, M50D, N52S, M88Q (antibody, human IgG1, V domains shown, Human IgG1) VH: EVQLVESGGGLVQPGGSLRLSCAASGFTFSPFAMSWVRQAPGKGLEWVAKESPGGSWTYYSDTVTDRFTFSLDTSKSTAYLQMNSLRAEDTAVYYCARQLWGYYALDIWGQGTLVTVSS VL: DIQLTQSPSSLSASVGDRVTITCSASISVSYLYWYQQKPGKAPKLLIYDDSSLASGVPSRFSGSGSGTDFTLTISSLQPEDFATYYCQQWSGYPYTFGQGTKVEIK
8.67
anti-IL-6 antibody, heavy chain T63R, G66D / light chain M32L, M50D, N52S, M88Q (antibody, human IgG1, V domains shown, Human IgG1) VH: EVQLVESGGGLVQPGGSLRLSCAASGFTFSPFAMSWVRQAPGKGLEWVAKISPGGSWTYYSDRVTDRFTFSLDTSKSTAYLQMNSLRAEDTAVYYCARQLWGYYALDIWGQGTLVTVSS VL: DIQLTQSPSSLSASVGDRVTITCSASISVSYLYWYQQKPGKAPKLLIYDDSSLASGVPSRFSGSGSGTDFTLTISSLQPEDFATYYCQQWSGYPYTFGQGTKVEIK
9.56

Let's switch to this binder now.
// query pKd value for entry anti-IL-6 antibody, heavy chain S35Q, G66D / light chain M32L, M50D, N52S, M88Q (antibody, human IgG1, V domains shown, Human IgG1) VH: EVQLVESGGGLVQPGGSLRLSCAASGFTFSPFAMQWVRQAPGKGLEWVAKISPGGSWTYYSDTVTDRFTFSLDTSKSTAYLQMNSLRAEDTAVYYCARQLWGYYALDIWGQGTLVTVSS VL: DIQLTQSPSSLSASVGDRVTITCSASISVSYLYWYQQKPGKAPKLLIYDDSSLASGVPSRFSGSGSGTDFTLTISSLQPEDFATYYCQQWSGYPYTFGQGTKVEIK 9.52
